Tested on: picryl chloride-induced type IV allergy
Experiment: Inhibiting effect on a picryl chloride-induced type IV allergy (3-arylpurine derivatives)
Type: in vivo, male ICR strain mice
Conditions: 10 mg/kg orally twice (just after induction and 16 hours after); left auricula thickness at 24 hours
Experimental: The abdomen of 6-weeks old male ICR strain mice was shaven and 0.1 ml of a 7% picryl chloride solution in acetone was applied to the epithelium of the abdomen for immunization. […] The thickness of the left auricula was measured both before the induction and 24 hours after. The difference between the thickness of the left auricula before the induction and the value measured 24 hours after was calculated as the increase in thickness. […]

| compound | unitInfo | Percent Inhibition |
| --- | --- | --- |
| COc1ccc(-n2c(=O)n(C)c(=O)c3[nH]c(-c4cc(C(C)(C)C)c(O)c(C(C)(C)C)c4)nc32)cc1 | % | 16 |
| C[C@]12C=CC(=O)C=C1CC[C@@H]1[C@@H]2[C@@H](O)C[C@@]2(C)[C@H]1CC[C@]2(O)C(=O)CO [Prednisolone, prednisolone, reference compound] | % | 67 |
| Cn1c(=O)c2[nH]c(-c3cc(C(C)(C)C)c(O)c(C(C)(C)C)c3)nc2n(-c2ccccc2)c1=O | % | 38 |
| Cn1c(=O)c2[nH]c(-c3ccc(O)c(O)c3)nc2n(-c2ccccc2)c1=O | % | 35 |
| CC(=O)Oc1cc(-c2nc3c([nH]2)c(=O)n(C)c(=O)n3-c2ccccc2)cc(OC(C)=O)c1OC(C)=O | % | 37 |
